target: TYK2 JH1 (Homo sapiens); construct: TYK2 JH1; assay: KINOMEscan binding, TYK2 JH1
Sequence (P29597 897-1176 limits assumed): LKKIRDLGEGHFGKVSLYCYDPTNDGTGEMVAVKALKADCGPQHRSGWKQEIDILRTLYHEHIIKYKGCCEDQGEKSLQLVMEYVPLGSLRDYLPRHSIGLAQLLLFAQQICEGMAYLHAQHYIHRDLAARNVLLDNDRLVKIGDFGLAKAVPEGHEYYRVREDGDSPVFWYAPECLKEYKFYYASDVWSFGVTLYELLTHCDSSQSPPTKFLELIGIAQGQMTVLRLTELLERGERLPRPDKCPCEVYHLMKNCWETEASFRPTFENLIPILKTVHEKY
pKd: −log10 of the molar value.
test.readout: pKd

// worked examples, pKd included
- CNc1cc2nc3c(cnn13)C(=O)N1CC[C@@H](C1)OCc1cc(c3nnn(C)c3c1)N2: ≤ 4.52
- CNc1cc2nc3c(cnn13)C(=O)N[C@@H]1CCC[C@H]1OCc1cc(c3nn(C)nc3c1)N2: 4.52 to 5.00
- CNc1cc2nn3c(cnc13)C(=O)N[C@@H]1CCC[C@H]1OCc1cc(c3c(c1)nnn3C)N2: ≤ 4.52
- [2H]C1([2H])O[C@H]2CCC[C@H]2NC(=O)c2cnc3c(NC)cc(nn23)Nc2cc1cc1c2nnn1C: ≤ 4.52

// query For the compound CNc1cc2nc3c(cnn13)C(=O)N[C@@H]1CCC[C@@H]1OCc1cc(c3nnn(C)c3c1)N2 , report pKd.
// result ≤ 4.52
